Test system: Vero E6 infected with SARS-CoV-2
Test: inhibition of SARS-CoV-2 cytopathic effect; higher = more antiviral protection, active = above 15
Settings: 1 nM; 48 h
readout kind: inhibition of SARS-CoV-2 cytopathic effect (%)
Dear colleague, please return just the value in %, with no unit written.

Exam item: Observed inhibition of SARS-CoV-2 cytopathic effect on Vero E6 infected with SARS-CoV-2 for Cc1csc(-c2nnc(Nc3ccc(Oc4ncccc4-c4ccnc(N)n4)cc3)c3ccccc23)c1 , please.
Marked response: -1.03

Exam item: Observed inhibition of SARS-CoV-2 cytopathic effect on Vero E6 infected with SARS-CoV-2 for Cc1ccc(=O)n(-c2ccc(O)cc2)c1 , please.
Marked response: -3.24

Exam item: Observed inhibition of SARS-CoV-2 cytopathic effect on Vero E6 infected with SARS-CoV-2 for O=C1COc2nccc(-c3ccccc3F)c2CN1Cc1cc(C(F)(F)F)cc(C(F)(F)F)c1 , please.
Marked response: -0.76

Exam item: Observed inhibition of SARS-CoV-2 cytopathic effect on Vero E6 infected with SARS-CoV-2 for CCCN(CCC)C(=O)C1=Cc2ccc(-c3ccc(C(=O)N4CCCC4)cc3)cc2N=C(N)C1 , please.
Marked response: 0.77

Exam item: Observed inhibition of SARS-CoV-2 cytopathic effect on Vero E6 infected with SARS-CoV-2 for CN(C(=O)Cc1ccc(Cl)c(Cl)c1)[C@H](CN1CCCC1)c1ccccc1 , please.
Marked response: 4.62

Exam item: Observed inhibition of SARS-CoV-2 cytopathic effect on Vero E6 infected with SARS-CoV-2 for C[C@@H](CN1CC(=O)NC(=O)C1)N1CC(=O)NC(=O)C1 , please.
Marked response: 1.89

Exam item: Observed inhibition of SARS-CoV-2 cytopathic effect on Vero E6 infected with SARS-CoV-2 for COC(=O)c1ccc(N2CCN(C)CC2)c(NC(=O)c2cccc(OC)c2)c1 , please.
Marked response: 6.88

Exam item: Observed inhibition of SARS-CoV-2 cytopathic effect on Vero E6 infected with SARS-CoV-2 for CC1(C)O[C@@H]2[C@@H](CO[C@@]3(COS(N)(=O)=O)OC(C)(C)O[C@@H]23)O1 [topiramate] , please.
Marked response: -1.19

Exam item: Observed inhibition of SARS-CoV-2 cytopathic effect on Vero E6 infected with SARS-CoV-2 for CC#C[C@@H](CC(=O)O)c1ccc(OCc2cccc(-c3ccc(C(F)(F)F)cc3)c2)cc1 , please.
Marked response: -0.29

Exam item: Observed inhibition of SARS-CoV-2 cytopathic effect on Vero E6 infected with SARS-CoV-2 for O=P1(NCCCl)OCCCN1CCCl (stereo not given) [ifosfamide] , please.
Marked response: 0.24

Exam item: Observed inhibition of SARS-CoV-2 cytopathic effect on Vero E6 infected with SARS-CoV-2 for N#CN=C(NCCCCCCOc1ccc(Cl)cc1)Nc1ccncc1 , please.
Marked response: 0.77

Exam item: Observed inhibition of SARS-CoV-2 cytopathic effect on Vero E6 infected with SARS-CoV-2 for O=C(O)c1cc(=O)c2ccccc2o1 , please.
Marked response: -1.09

Exam item: Observed inhibition of SARS-CoV-2 cytopathic effect on Vero E6 infected with SARS-CoV-2 for C[N+]1(C)CCC(=C(c2ccccc2)c2ccccc2)CC1 , please.
Marked response: -0.26

Exam item: Observed inhibition of SARS-CoV-2 cytopathic effect on Vero E6 infected with SARS-CoV-2 for CC(C)Oc1cccc(-n2c(CCc3c[nH]c4ccc(Br)cc34)nc3ccccc3c2=O)c1 , please.
Marked response: -1.06

Exam item: Observed inhibition of SARS-CoV-2 cytopathic effect on Vero E6 infected with SARS-CoV-2 for CCCC[C@H]1OC(=O)c2ccccc21 [butylphthalide] , please.
Marked response: -2.11

Exam item: Observed inhibition of SARS-CoV-2 cytopathic effect on Vero E6 infected with SARS-CoV-2 for OC1(c2ccc(Cl)c(C(F)(F)F)c2)CCN(CCCC(c2ccc(F)cc2)c2ccc(F)cc2)CC1 , please.
Marked response: -1.2

Exam item: Observed inhibition of SARS-CoV-2 cytopathic effect on Vero E6 infected with SARS-CoV-2 for CO/N=C(\C(=O)N[C@@H]1C(=O)N2C(C(=O)O)=C(CSc3nc(=O)c(O)nn3C)CS[C@H]12)c1csc(N)n1 , please.
Marked response: -1.95

Exam item: Observed inhibition of SARS-CoV-2 cytopathic effect on Vero E6 infected with SARS-CoV-2 for CN[C@@H]1[C@@H](O)[C@@H](O[C@@H]2[C@@H](O)[C@H](O[C@H]3OC(CN)=CC[C@H]3N)[C@@H](N)C[C@H]2N)OC[C@]1(C)O [Sisomicin (sulfate)] , please.
Marked response: 0.02

Exam item: Observed inhibition of SARS-CoV-2 cytopathic effect on Vero E6 infected with SARS-CoV-2 for CC(=O)Oc1cc2c(s1)CCN(C(C(=O)C1CC1)c1ccccc1F)C2 (stereo not given) , please.
Marked response: 2.32

Exam item: Observed inhibition of SARS-CoV-2 cytopathic effect on Vero E6 infected with SARS-CoV-2 for Nc1c2c(nc3c1CCC3)CCCC2 , please.
Marked response: 1.46

Exam item: Observed inhibition of SARS-CoV-2 cytopathic effect on Vero E6 infected with SARS-CoV-2 for C#CCN[C@@H]1CCc2ccccc21 , please.
Marked response: 0.63

Exam item: Observed inhibition of SARS-CoV-2 cytopathic effect on Vero E6 infected with SARS-CoV-2 for CCN(CC)CCNC(=O)c1c(C)[nH]c(/C=C2\C(=O)Nc3ccc(F)cc32)c1C , please.
Marked response: 0.55

Exam item: Observed inhibition of SARS-CoV-2 cytopathic effect on Vero E6 infected with SARS-CoV-2 for Nc1nc(F)nc2c1ncn2[C@@H]1O[C@H](COP(=O)(O)O)[C@@H](O)[C@@H]1O [fludarabine-phosphate] , please.
Marked response: 1.37

Exam item: Observed inhibition of SARS-CoV-2 cytopathic effect on Vero E6 infected with SARS-CoV-2 for CC(=O)c1ccc2c(c1)C(=O)C1(CC1)O2 , please.
Marked response: -4.51

Exam item: Observed inhibition of SARS-CoV-2 cytopathic effect on Vero E6 infected with SARS-CoV-2 for O=C(Nc1ccccc1)N[C@H]1C[C@H](C(=O)O)Nc2cc(Cl)cc(Cl)c21 , please.
Marked response: -0.64

---

Please respond with reported inhibition of SARS-CoV-2 cytopathic effect for every item in the list.
System: Vero E6 infected with SARS-CoV-2
Assay: inhibition of SARS-CoV-2 cytopathic effect; higher = more antiviral protection, active = above 15
Settings: 833.33 nM; 48 h
Dear colleague, please return just the value in %, with no unit written.

Exam item: Observed inhibition of SARS-CoV-2 cytopathic effect on Vero E6 infected with SARS-CoV-2 for O=Nc1c(O)[nH]c2c(Cl)c(Cl)ccc12 , please.
Marked response: -0.54

Exam item: Observed inhibition of SARS-CoV-2 cytopathic effect on Vero E6 infected with SARS-CoV-2 for O=C(O)C(O)Cc1ccc(O)c(O)c1 (stereo not given) [sodium-danshensu] , please.
Marked response: -0.61

Exam item: Observed inhibition of SARS-CoV-2 cytopathic effect on Vero E6 infected with SARS-CoV-2 for Cn1c([N+](=O)[O-])cnc1COC(N)=O [ronidazole] , please.
Marked response: 2.17

Exam item: Observed inhibition of SARS-CoV-2 cytopathic effect on Vero E6 infected with SARS-CoV-2 for Clc1ccc([C@]23CNC[C@H]2C3)cc1Cl [amitifadine] , please.
Marked response: 1.86

Exam item: Observed inhibition of SARS-CoV-2 cytopathic effect on Vero E6 infected with SARS-CoV-2 for CCNC(=O)NS(=O)(=O)c1sc(CC(C)C)cc1-c1ccc(Cn2c(-c3ccccc3)nc(OC)c2C=O)cc1 , please.
Marked response: 1.08

Exam item: Observed inhibition of SARS-CoV-2 cytopathic effect on Vero E6 infected with SARS-CoV-2 for O=C(O)c1cc(=O)c2ccccc2o1 [chromocarb] , please.
Marked response: 3.21

Exam item: Observed inhibition of SARS-CoV-2 cytopathic effect on Vero E6 infected with SARS-CoV-2 for CC(C)[C@@H]1C(=O)N(S(C)(=O)=O)[C@@H]2CCN(C(=O)/C=C/CN3CCCCC3)[C@H]21 , please.
Marked response: -0.28

Exam item: Observed inhibition of SARS-CoV-2 cytopathic effect on Vero E6 infected with SARS-CoV-2 for COc1cc(SC)ccc1C(=O)N1CCC(Cc2ccccc2)CC1 , please.
Marked response: 9.01

Exam item: Observed inhibition of SARS-CoV-2 cytopathic effect on Vero E6 infected with SARS-CoV-2 for CCN(CC)CCOC(=O)C1(C2CCCCC2)CCCCC1 [dicycloverine] , please.
Marked response: 0.85

Exam item: Observed inhibition of SARS-CoV-2 cytopathic effect on Vero E6 infected with SARS-CoV-2 for CCCCCCCC/C=C\CCCCCCCC(=O)N[C@@H](CO)Cc1ccc(O)cc1 , please.
Marked response: 1.23

Exam item: Observed inhibition of SARS-CoV-2 cytopathic effect on Vero E6 infected with SARS-CoV-2 for O=C(O)c1cnn(-c2nc3cc(OC(F)(F)F)c(Cl)cc3[nH]2)c1 , please.
Marked response: 1.43

Exam item: Observed inhibition of SARS-CoV-2 cytopathic effect on Vero E6 infected with SARS-CoV-2 for Clc1cccc(Cl)c1CSc1nnc(-c2cnccn2)s1 [yoda-1] , please.
Marked response: 2.67

Exam item: Observed inhibition of SARS-CoV-2 cytopathic effect on Vero E6 infected with SARS-CoV-2 for COC(=O)c1ccc(N2CCN(C)CC2)c(NC(=O)c2cccc(OC)c2)c1 , please.
Marked response: -3.85

Exam item: Observed inhibition of SARS-CoV-2 cytopathic effect on Vero E6 infected with SARS-CoV-2 for Nc1ncnc2c1ncn2[C@@H]1O[C@H](COP(=O)(O)OP(=O)(O)OP(=O)(O)O)[C@@H](O)[C@H]1O , please.
Marked response: 2.57

Exam item: Observed inhibition of SARS-CoV-2 cytopathic effect on Vero E6 infected with SARS-CoV-2 for CO[C@H]1/C=C/O[C@@]2(C)Oc3c(C)c(O)c4c(O)c(cc(O)c4c3C2=O)NC(=O)/C(C)=C\C=C\[C@H](C)[C@H](O)[C@@H](C)[C@@H](O)[C@@H](C)[C@H](OC(C)=O)[C@@H]1C [rifamycin-sv] , please.
Marked response: 4.53
